Recorded growth by entry
Test system: A498 renal
Assay: NCI-60 one-dose screen, 48 h (100 = growth as untreated, 0 = no growth, -100 = all killed)
Settings: 10 µM
Experimental: Growth inhibition of the A498 human tumor cell line is measured as a screen for anti-cancer activity. Cells are grown in 96 well plates and exposed to the test compound for 48 hours. Compounds are tested at a single concentration, which is 10^-5 M for most compounds. The reported endpoint is percent growth (GI% or GIPRCNT), where numbers from 0 - 100% represent growth inhibition, and numbers from -100% - 0 represent cell death. For example, a value of 40 represents 60% growth inhibition. […]
Compounds without any hit were thinned out: in the full panel of roughly 83,000, 20% have a hit.
Give your result in % as a bare value.

// known answers, use as guide
{"compound": "O=C(c1ccc(Cl)cc1)C1[C@H](c2ccccc2Br)[C@@H](c2ccccc2)NC12C(=O)Nc1ccc(Br)cc12 (stereo partly drawn)", "target-of-assay": "A498 renal", "growth, %": 74.5}
{"compound": "O=c1c2ccccc2nc(COc2ccccc2)n1/N=C/c1ccc(F)cc1", "target-of-assay": "A498 renal", "growth, %": 106}
{"compound": "O=C(c1ccc(Cl)cc1)C1[C@H](c2ccc(Br)cc2)[C@@H](c2ccccc2)NC12C(=O)Nc1ccccc12 (stereo partly drawn)", "target-of-assay": "A498 renal", "growth, %": -23.5}
{"compound": "COc1cccc(/C=N/NC(=O)c2ccc3nc(-c4ccc(Cl)cc4)[nH]c3c2)c1O", "target-of-assay": "A498 renal", "growth, %": -69.1}
{"compound": "COc1cc(/C=C/C(=O)c2ccc(F)cc2)ccc1Oc1nc(Nc2ccc(F)cc2)nc(N(C)C)n1", "target-of-assay": "A498 renal", "growth, %": 86.5}

**Query** Record request: growth value, item CO[C@@H]1CSS[C@H]1Cn1nc(-c2ccc(Oc3ccccc3)cc2)c2c(N)ncnc21
**Result** 67

**Query** Record request: growth value, item COc1ccc(-c2c(N)c(=O)n(C)c3ccccc23)cc1
**Result** 110

**Query** Record request: growth value, item C[C@H]1[C@H](C)CC[C@]2(COC(=O)CCC(=O)NCC#CCN3CCNCC3)CC[C@]3(C)C(=CC[C@@H]4[C@@]5(C)CCCNC(C)(C)[C@@H]5CC[C@]43C)[C@H]12
**Result** 111

Data credit: PubChem BioAssay (NCI)
